These entries and their values trace back to ChEMBL document CHEMBL1130053.

Target sequence: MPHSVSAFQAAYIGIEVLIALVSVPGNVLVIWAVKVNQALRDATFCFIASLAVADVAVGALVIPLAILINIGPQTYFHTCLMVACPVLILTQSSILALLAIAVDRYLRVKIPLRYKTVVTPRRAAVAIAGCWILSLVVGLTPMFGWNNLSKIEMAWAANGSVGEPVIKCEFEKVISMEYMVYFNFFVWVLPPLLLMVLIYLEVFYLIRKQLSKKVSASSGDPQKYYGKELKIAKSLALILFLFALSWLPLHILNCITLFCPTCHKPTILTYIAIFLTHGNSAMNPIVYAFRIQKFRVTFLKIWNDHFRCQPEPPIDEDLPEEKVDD
READOUT LABEL: Ki (nM)
Numbers only, in nM.

Value of Ki reported for the molecule CCCn1c(=O)c2nc(C3CC4CC3C3OC43)[nH]c2n(CCC)c1=O (stereo in doubt; 12) is 1.43
